These measurements were taken from patent US8389555B2.

studySystem: recombinant human D2(short) dopamine receptor (Homo sapiens, UniProt P14416)
Sequence (P14416 1-414 isoform P14416-2): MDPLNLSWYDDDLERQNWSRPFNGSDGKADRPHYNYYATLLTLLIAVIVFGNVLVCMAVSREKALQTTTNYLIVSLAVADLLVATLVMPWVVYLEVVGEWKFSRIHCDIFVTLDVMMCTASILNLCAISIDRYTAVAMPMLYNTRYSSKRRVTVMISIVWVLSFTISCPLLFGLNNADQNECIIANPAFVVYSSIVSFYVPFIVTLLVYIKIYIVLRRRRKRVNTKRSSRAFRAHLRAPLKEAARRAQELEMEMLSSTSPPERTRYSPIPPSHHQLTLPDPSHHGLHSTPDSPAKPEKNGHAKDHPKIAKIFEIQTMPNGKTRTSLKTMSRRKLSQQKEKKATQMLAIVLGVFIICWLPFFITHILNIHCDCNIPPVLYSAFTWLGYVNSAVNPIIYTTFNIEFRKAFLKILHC
assayMethodText: Dopamine D2S receptor binding assay ([3H]spiperone, CHO cell membranes)
experimentalContext: human D2S receptors in CHO cells, 0.2 nM [3H]spiperone, mean ± SEM; read-out: Affinity Ki (D2)
pKi: −log10 of the molar value.
Decide using pKi: a value greater than or equal to 6 is Satisfied, a smaller one is Not satisfied.

CCCN(CCN1CCN(C(=O)c2cccc3ccccc23)CC1)C1CCc2ncsc2C1 (centres unmarked) [Compound 39] = Not satisfied
CCCN(CCCCC(=O)Nc1ccc2ccccc2c1)C1CCc2ncsc2C1 (centres unmarked) [Compound 9] = Satisfied
O=C(NCCCCNC1CCc2ncsc2C1)c1cc2ccccc2s1 (centres unmarked) [Compound 10] = Not satisfied

API: the following record is the query input.
Prompt: Decide: is the reported value of pKi for CCCN(CCCCNC(=O)N1CCN(c2ccccc2)CC1)C1CCc2ncsc2C1 (centres unmarked) [Compound 61] equal to or greater than 6?
Completion: Not satisfied

====

studySystem: human dopamine D3 receptors (Homo sapiens, UniProt P35462)
Construct: expressed in transfected cells
Sequence (P35462 whole entry): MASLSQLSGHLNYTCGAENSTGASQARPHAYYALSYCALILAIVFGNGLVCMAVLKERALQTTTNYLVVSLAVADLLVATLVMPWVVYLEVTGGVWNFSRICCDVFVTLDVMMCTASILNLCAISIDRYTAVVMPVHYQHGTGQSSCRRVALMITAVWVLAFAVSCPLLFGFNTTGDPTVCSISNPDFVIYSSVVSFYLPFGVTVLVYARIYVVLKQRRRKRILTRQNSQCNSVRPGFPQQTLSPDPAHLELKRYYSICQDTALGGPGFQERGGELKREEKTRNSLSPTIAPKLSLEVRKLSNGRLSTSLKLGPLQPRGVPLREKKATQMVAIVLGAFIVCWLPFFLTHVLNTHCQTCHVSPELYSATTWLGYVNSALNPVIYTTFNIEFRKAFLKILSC
assayMethodText: Dopamine D3 receptor binding assay ([3H]spiperone, CHO cell membranes)
experimentalContext: ratio of Ki(D2) to Ki(D3)
measurementKind: Selectivity Ki(D2)/Ki(D3)

CN(CCCCNC(=O)c1cc2ccccc2s1)C1CCc2ncsc2C1 (stereo not shown) = 65
CCCN(CCCCNC(=O)c1ccc2ncsc2c1)C1CCc2ncsc2C1 (stereo not shown) = 531
CCCN(CCCCNC(=O)N1CCCCC1)C1CCc2ncsc2C1 (stereo not shown) = 1152

Record for CCCN(CCN1CCN(C(=O)c2cccc3ccccc23)CC1)C1CCc2ncsc2C1 (stereo not shown) under target or system human dopamine D3 receptors (Homo sapiens, UniProt P35462): Selectivity Ki(D2)/Ki(D3) reported as 247

Response field Selectivity Ki(D2)/Ki(D3) (human dopamine D3 receptors (Homo sapiens, UniProt P35462)) for item CCCN(Cc1ccc(C(=O)N2CCN(c3ccccc3)CC2)cc1)C1CCc2ncsc2C1 (stereo not shown) : 49

Tested on human dopamine D3 receptors (Homo sapiens, UniProt P35462): CCCN(CCN1CCN(c2ccccc2OC)CC1)C1CCc2ncsc2C1 (stereo not shown) . Observed Selectivity Ki(D2)/Ki(D3): 29

Observed Selectivity Ki(D2)/Ki(D3), human dopamine D3 receptors (Homo sapiens, UniProt P35462), CCCN(CCCCNC(=O)C12CC3CC(CC(C3)C1)C2)C1CCc2ncsc2C1 (stereo not shown) : 2879

Recorded Selectivity Ki(D2)/Ki(D3) for CCN(CCN1CCN(c2ccccc2OC)CC1)C1CCc2ncsc2C1 (stereo not shown) on human dopamine D3 receptors (Homo sapiens, UniProt P35462) was 11

Result for CCN(CCCCNC(=O)c1ccc2ccccc2c1)C1CCc2ncsc2C1 (stereo not shown) , tested on human dopamine D3 receptors (Homo sapiens, UniProt P35462), Selectivity Ki(D2)/Ki(D3): 581

Log: human dopamine D3 receptors (Homo sapiens, UniProt P35462), compound O=C(NCCCCNC1CCc2ncsc2C1)c1nc2ccccc2s1 (stereo not shown) , Selectivity Ki(D2)/Ki(D3) = 13

Selectivity Ki(D2)/Ki(D3) for human dopamine D3 receptors (Homo sapiens, UniProt P35462) with input CCN(CCN1CCc2ccccc2C1)C1CCc2ncsc2C1 (stereo not shown) equals 35

Measured Selectivity Ki(D2)/Ki(D3) (human dopamine D3 receptors (Homo sapiens, UniProt P35462)), entry C#CCN(CCCCNC(=O)c1ccc2ccccc2c1)C1CCc2ncsc2C1 (stereo not shown) : 1170
